Numbers sourced from paper PMC12416549.

Biological target: T1, TNFR1 (Homo sapiens, UniProt P19438)
T1 chain: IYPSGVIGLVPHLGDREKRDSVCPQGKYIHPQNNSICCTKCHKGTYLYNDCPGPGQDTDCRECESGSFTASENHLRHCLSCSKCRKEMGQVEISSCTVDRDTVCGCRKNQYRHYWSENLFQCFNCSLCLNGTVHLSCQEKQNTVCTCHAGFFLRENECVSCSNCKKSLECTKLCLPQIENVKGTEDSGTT
Assay: yeast display SC50
REPORTED ENDPOINT: apparent Kd (screen) (nM)

a: R97V (designed binder) MTLQELLREEALRRAEAEAFRYALELLAEKFPEQKEYLLDLAEEIESQIRSLSGVDVEDVRKFLDKEWAWVKELLAEHPAELAEVEAARAARLAELVAEVEAKVAA
b: A105V (designed binder) MTLQELLREEALRRAEAEAFRYALELLAEKFPEQKEYLLDLAEEIESQIRSLSGVDVEDVRKFLDKEWAWVKELLAEHPAELAEVEAARAARLAELRAEVEAKVVA
Exercise: Parameter metric = apparent Kd (screen). Return the lower-valued option from a and b . Response format: the label of the selected entry.
Solution: a
